Target: Human CARM1 (PRMT4) (Homo sapiens, UniProt Q86X55)
Construct: Flag-CARM1-His was eluted with 200 ug/ml FLAG peptide in buffer A
Sequence (Q86X55 other isoform, or with tags, fused parts or gaps): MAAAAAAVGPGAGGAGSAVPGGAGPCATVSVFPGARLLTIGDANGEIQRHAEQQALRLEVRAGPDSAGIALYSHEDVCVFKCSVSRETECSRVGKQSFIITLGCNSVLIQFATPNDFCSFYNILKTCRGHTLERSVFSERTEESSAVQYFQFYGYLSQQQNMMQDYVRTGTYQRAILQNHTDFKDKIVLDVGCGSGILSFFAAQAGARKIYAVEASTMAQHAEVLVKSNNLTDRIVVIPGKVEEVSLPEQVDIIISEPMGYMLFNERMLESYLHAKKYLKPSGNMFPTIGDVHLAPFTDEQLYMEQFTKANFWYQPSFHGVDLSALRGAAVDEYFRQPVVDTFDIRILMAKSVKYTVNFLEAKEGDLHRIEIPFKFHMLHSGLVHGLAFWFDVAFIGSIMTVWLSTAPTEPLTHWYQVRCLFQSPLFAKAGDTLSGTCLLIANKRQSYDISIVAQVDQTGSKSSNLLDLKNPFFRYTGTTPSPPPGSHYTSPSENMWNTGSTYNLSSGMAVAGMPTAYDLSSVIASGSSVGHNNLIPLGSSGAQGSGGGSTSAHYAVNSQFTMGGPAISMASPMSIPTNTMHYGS
Test: CARM1 enzyme assay on peptide substrate (3H-SAM Flashplate)
Conditions: CARM1 0.25 nM, 3H-SAM 30 nM, peptide 250 nM; read-out: Biochem IC50
Text: S-adenosylmethionine (SAM), S-adenosylhomocysteine (SAH), bicine, Tween20, dimethylsulfoxide (DMSO), bovine skin gelatin (BSG), sodium butyrate and Tris(2-carboxyethyl)phosphine hydrochloride solution (TCEP) were purchased from Sigma-Aldrich at the highest level of purity possible. ^3H-SAM was purchase from American Radiolabeled Chemicals with a specific activity of 80 Ci/mmol. 384-well streptavidin Flashplates were purchased from PerkinElmer. […]
reported.metric: IC50

Study these solved cases before continuing.
>>> result("CNCC(O)COc1cccc(-c2nc(NCc3ccn(C)n3)c3cnn(C4CC4)c3n2)c1 (centres unmarked)")
"100 to 1000 nM"
>>> result("CNCC(O)COc1cc(OC)cc(-c2cc(NC3CCOCC3)n3ncc(C(C)C)c3n2)c1 (centres unmarked)")
"< 100 nM"
>>> result("CNCC(O)COc1cccc(-c2cc(NC3CCOCC3)n3ncc(C(C)(C)C)c3n2)c1 (centres unmarked)")
"< 100 nM"

# IC50 (compound: CNCC(O)COc1cccc(-c2nc(NCc3ccncc3)c3cnn(C4CC4)c3n2)c1 (centres unmarked) ) is 100 to 1000 nM

# IC50 (compound: CNCC(O)COc1cccc(-c2nc(NCc3cc(C)nn3C)c3cnn(C4CC4)c3n2)c1 (centres unmarked) ) is < 100 nM

# IC50 (compound: CNCC(O)COc1cc(Cl)cc(-c2cc(N3CC(CO)(CCl)C3)n3ncc(C(C)C)c3n2)c1 (centres unmarked) ) is < 100 nM

# IC50 (compound: CNCC(O)COc1cc(O)cc(-c2cc(N3CCOCC3)c3cnn(C(C)C)c3n2)c1 (centres unmarked) ) is < 100 nM

# IC50 (compound: CNCC(O)COc1cc(OC)cc(-c2cc(N3CC4(CCOCC4)C3)n3ncc(C(C)C)c3n2)c1 (centres unmarked) ) is 100 to 1000 nM

* * *

Biological target: Human CARM1 (PRMT4) (Homo sapiens)
Construct: Flag-CARM1-His was eluted with 200 ug/ml FLAG peptide in buffer A
Assay: CARM1 enzyme assay on peptide substrate (3H-SAM Flashplate)
Settings: CARM1 0.25 nM, 3H-SAM 30 nM, peptide 250 nM; read-out: Biochem IC50
pIC50: −log10 of the molar value.
Known pIC50 of a selection of compounds

Study these solved cases before continuing.
>>> result("CNCC(O)COc1cc(Cl)cc(-c2cc(N(C)[C@@H]3CCOC3)n3ncc(C(C)C)c3n2)c1 (stereo partly shown)")
"> 7.00"
>>> result("CNCC(O)COc1cc(CO)cc(-c2cc(NC3CCOCC3)c3cnn(C(C)C)c3n2)c1 (stereo not shown)")
"6.00 to 7.00"
>>> result("CNCC(O)COc1cccc(-c2nc(N(C)C3CCOCC3)c3cnn(C(C)(C)C)c3n2)c1 (stereo not shown)")
"> 7.00"

# pIC50 (compound: Cn1ccc(CNc2nc(-c3cccc(OCC(O)CN)c3)nc3c2cnn3C2CC2)n1 (stereo not shown) ) is 6.00 to 7.00

# pIC50 (compound: Cc1cc(CNc2nc(-c3cccc(OCC(O)CN)c3)nc3c2cnn3C2CC2)n(C)n1 (stereo not shown) ) is > 7.00
